Value source: patent US12187709B2

pKd: −log10 of the molar value.
A short record of pKd observed with Human Cbl-b (residues 40-426) (Homo sapiens (Human), UniProt Q13191) follows.
Sequence (Q13191 40-426): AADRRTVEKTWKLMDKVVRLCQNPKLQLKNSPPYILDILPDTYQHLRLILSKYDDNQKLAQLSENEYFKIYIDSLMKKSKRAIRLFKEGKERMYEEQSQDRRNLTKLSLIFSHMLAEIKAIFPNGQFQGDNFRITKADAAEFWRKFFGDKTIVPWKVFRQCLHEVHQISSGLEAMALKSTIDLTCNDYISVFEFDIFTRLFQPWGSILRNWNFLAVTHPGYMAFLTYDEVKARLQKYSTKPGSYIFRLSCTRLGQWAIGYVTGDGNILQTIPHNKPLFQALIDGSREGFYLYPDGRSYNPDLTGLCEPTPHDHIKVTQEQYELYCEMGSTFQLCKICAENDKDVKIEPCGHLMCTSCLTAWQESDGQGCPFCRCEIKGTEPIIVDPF
recordedMetric: pKd

molecule | dataValue
Cn1cnnc1C1(c2cccc(N3Cc4c(cc(CNC5(C)CCC5)cc4C(F)(F)F)C3=O)c2)CC(F)(F)C1 | 8.43
Cn1cnnc1[C@]1(c2cccc(N3Cc4c(cc(CNC5(C)CCC5)cc4C(F)(F)F)C3=O)c2)C[C@]2(CCO2)C1 | 8.28
Cn1cnnc1[C@@H](c1cccc(N2Cc3c(cc(CNC4(C)CCC4)cc3C(F)(F)F)C2=O)c1)C1CC(OC(F)(F)F)C1 (single isomer, unassigned) | 8.70
Cn1cnnc1[C@@H](c1cccc(N2Cc3c(cc([C@@H](NC4(C)CCC4)C4CC4)cc3C(F)(F)F)C2=O)c1)C1COC1 (single isomer, unassigned) | 8.23
Cn1cnnc1[C@H](c1cc(Cl)cc(N2Cc3c(cc(CNC4(C)CCC4)cc3C(F)(F)F)C2=O)c1)C1COC1 (single isomer, unassigned) | 7.21
Cn1cnnc1[C@@H](c1cccc(N2Cc3c(cc(CNC4(C)CCC4)cc3C(F)(F)F)C2=O)c1)C1CC(F)C1 (single isomer, unassigned) | 8.44
C[C@H](NC1(C)CCC1)c1cc2c(c(C(F)(F)F)c1)CN(c1cccc([C@@H](c3nncn3C)C3COC3)c1)C2=O (single isomer, unassigned) | 6.74
Cn1cnnc1C1(c2cccc(N3Cc4c(cc(CNC5(C)CCC5)cc4C(F)(F)F)C3=O)c2)CSC1.O=CO [Compound 329, formate] | 8.49
Cn1cnnc1[C@]1(c2cccc(N3Cc4c(cc(CNC5(C)CCC5)cc4C(F)(F)F)C3=O)c2)C[C@@](O)(C(F)(F)F)C1 | 6.74
Cn1cnnc1[C@@H](c1cccc(N2Cc3c(cc(CNC4(C)CCC4)cc3C(F)(F)F)C2=O)c1)C1COC1 (single isomer, unassigned) | 8.72
CO[C@H]1C[C@@](c2cc(N[C@H](C)CC#N)cc(N3Cc4c(cc(CNC5(C)CCC5)cc4C(F)(F)F)C3=O)c2)(c2nncn2C)C1 (single isomer, unassigned) | 8.72
C[C@@H](NC1(C)CCC1)c1cc2c(c(C(F)(F)F)c1)CN(c1cccc([C@H](c3nncn3C)C3COC3)c1)C2=O | 9.40

---

target: c-Cbl (Homo sapiens (Human), UniProt P22681)
Sequence (P22681 47-435): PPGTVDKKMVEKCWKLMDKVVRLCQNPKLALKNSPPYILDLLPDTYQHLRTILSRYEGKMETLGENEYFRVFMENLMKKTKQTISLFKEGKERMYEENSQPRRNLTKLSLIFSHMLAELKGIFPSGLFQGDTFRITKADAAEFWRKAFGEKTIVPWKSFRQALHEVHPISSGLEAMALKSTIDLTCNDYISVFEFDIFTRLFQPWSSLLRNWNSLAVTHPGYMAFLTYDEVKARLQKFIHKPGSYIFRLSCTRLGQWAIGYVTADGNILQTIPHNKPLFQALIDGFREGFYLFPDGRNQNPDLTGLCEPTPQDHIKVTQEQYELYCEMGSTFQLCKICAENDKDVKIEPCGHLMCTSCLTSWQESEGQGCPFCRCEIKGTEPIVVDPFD
pIC50: −log10 of the molar value.
Ranges used to classify pIC50: Low (below 6), Medium (6 to below 7), High (7 or more)

compound | systemName | classLabel
CCOc1cc(N2Cc3c(cc(CNC4(C)CCC4)cc3C(F)(F)F)C2=O)cc([C@]2(c3nncn3C)C[C@H](C)C2)c1 [Compound 189] | c-Cbl (Homo sapiens (Human), UniProt P22681) | High
CO[C@H]1C[C@](c2cccc(N3Cc4c(cc(CN5CC6(CC6)C5)cc4C(F)(F)F)C3=O)c2)(c2nncn2C)C1 [Compound 423] | c-Cbl (Homo sapiens (Human), UniProt P22681) | Medium
Cn1cnnc1C(c1cccc(N2Cc3c(cc(CNC4(C)CCC4)cc3C(F)(F)F)C2=O)c1)[C@H]1C[C@@H](Cl)C1 (single isomer, unassigned) [Compound 357] | c-Cbl (Homo sapiens (Human), UniProt P22681) | High
Cn1cnnc1[C@@H](C[C@H]1COCCO1)c1cccc(N2Cc3c(cc(CNC4(C)CCC4)cc3C(F)(F)F)C2=O)c1 (single isomer, unassigned) [Compound 295] | c-Cbl (Homo sapiens (Human), UniProt P22681) | Low
Cn1cnnc1[C@H](c1cccc(N2Cc3c(cc(CNC4(C)CCC4)cc3C(F)(F)F)C2=O)c1)[C@H]1C[C@@H](C)C1 (single isomer, unassigned) [Compound 377] | c-Cbl (Homo sapiens (Human), UniProt P22681) | Low
Cn1cnnc1C1(c2cccc(N3Cc4c(cc(CNC5(C)CCC5)cc4C(F)(F)F)C3=O)c2)CS(=O)(=O)C1 [Compound 328] | c-Cbl (Homo sapiens (Human), UniProt P22681) | Medium
Cn1cnnc1C1(c2cccc(N3Cc4c(cc(CNC5(C)CCC5)cc4C(F)(F)F)C3=O)c2)CC1 [Compound 283] | c-Cbl (Homo sapiens (Human), UniProt P22681) | Medium
Cn1cnnc1C1(c2cc(OC3CCCC3)nc(N3Cc4c(cc(CNC5(C)CCC5)cc4C(F)(F)F)C3=O)c2)CC2(COC2)C1 [Compound 193] | c-Cbl (Homo sapiens (Human), UniProt P22681) | Medium
Cn1cnnc1[C@H](CC1(C)COC1)c1cccc(N2Cc3c(cc(CNC4(C)CCC4)cc3C(F)(F)F)C2=O)c1 [Compound 254] | c-Cbl (Homo sapiens (Human), UniProt P22681) | Low
CC(=O)N1CC([C@@H](c2cccc(N3Cc4c(cc(CNC5(C)CCC5)cc4C(F)(F)F)C3=O)c2)c2nncn2C)C1 (single isomer, unassigned) [Compound 402] | c-Cbl (Homo sapiens (Human), UniProt P22681) | Low
COC1CC([C@H](c2cccc(N3Cc4c(cc(CNC5(C)CCC5)cc4C(F)(F)F)C3=O)c2)c2nncn2C)C1 (single isomer, unassigned) [Compound 131] | c-Cbl (Homo sapiens (Human), UniProt P22681) | Low
CCOC1CC([C@H](c2cccc(N3Cc4c(cc(CNC5(C)CCC5)cc4C(F)(F)F)C3=O)c2)c2nncn2C)C1 (single isomer, unassigned) [Compound 264] | c-Cbl (Homo sapiens (Human), UniProt P22681) | Low
CC(=O)[C@H]1C[C@@](c2cccc(N3Cc4c(cc(CNC5(C)CCC5)cc4C(F)(F)F)C3=O)c2)(c2nncn2C)C1 [Compound 346] | c-Cbl (Homo sapiens (Human), UniProt P22681) | Medium
Cn1cnnc1[C@]1(c2cccc(N3Cc4c(cc(CNC5(C)CCC5)cc4C(F)(F)F)C3=O)c2)C[C@H](F)C1 [Compound 95] | c-Cbl (Homo sapiens (Human), UniProt P22681) | High
CC(C)[C@H]1CN(C)CCN1Cc1cc2c(c(C(F)(F)F)c1)CN(c1cccc([C@H](c3nncn3C)C3COC3)c1)C2=O (single isomer, unassigned) [Compound 11] | c-Cbl (Homo sapiens (Human), UniProt P22681) | Low
Cn1cnnc1[C@H](c1cccc(N2Cc3c(cc(CNC4(C)CCC4)cc3C(F)(F)F)C2=O)c1)C1CCOCC1.O=CO (single isomer, unassigned) [Compound 291, formate] | c-Cbl (Homo sapiens (Human), UniProt P22681) | High
Cn1cnnc1C1(c2cccc(N3Cc4c(cc(CNC5(C)CCC5)cc4C(F)(F)F)C3=O)c2)CN(S(C)(=O)=O)C1 [Compound 113] | c-Cbl (Homo sapiens (Human), UniProt P22681) | Low
Cn1cnnc1[C@@H](c1cccc(N2Cc3c(cc(CNC4(C)CCC4)cc3C(F)F)C2=O)c1)C1CC(F)C1 (single isomer, unassigned) [Compound 459] | c-Cbl (Homo sapiens (Human), UniProt P22681) | High

---

target: Cbl-b (Homo sapiens (Human)); assay: Cbl-b LCK Ub TR-FRET assay (Cbl-b Lck HTRF); type: biochemical; conditions: Cbl-b LCK Ub TR-FRET, Example 121
Sequence (Q13191 40-426): as the sequence (Q13191 40-426) above
pIC50: −log10 of the molar value.
# cutoff 7 applies to pIC50; >= gives 1, < gives 0

molecule | classLabel
Cn1cnnc1[C@@H](c1cc(Cl)cc(N2Cc3c(cc(CNC4(C)CCC4)cc3C(F)(F)F)C2=O)c1)C1COC1 (single isomer, unassigned) | 0
Cn1cnnc1[C@H](c1cccc(N2Cc3c(cc([C@@H](NC4(C)CCC4)C4CCC4)cc3C(F)(F)F)C2=O)c1)C1COC1 (single isomer, unassigned) | 0
Cn1cnnc1[C@]1(c2cccc(N3Cc4c(cc(CNC5(C)CCC5)cc4C(F)F)C3=O)c2)C[C@H](Cl)C1 | 1
Cn1cnnc1[C@@H](c1cccc(N2Cc3c(cc([C@@H](NC4(C)CCC4)C4CCC4)cc3C(F)(F)F)C2=O)c1)C1COC1 (single isomer, unassigned) | 1
CO[C@H]1C[C@](c2cccc(N3Cc4c(cc(CNC[C@@H]5[C@@H](C)C5(F)F)cc4C(F)(F)F)C3=O)c2)(c2nncn2C)C1 | 1
Cn1cnnc1[C@@H](c1cccc(N2Cc3c(cc(CNC4(C)CCC4)cc3C(F)F)C2=O)c1)C1CC(F)C1 (single isomer, unassigned) [Compound 459] | 1
Cn1cnnc1[C@@H](c1cccc(N2Cc3c(cc(CNC4(C)CCC4)cc3C(F)(F)F)C2=O)c1)C1(O)CCC1 (single isomer, unassigned) | 1
Cn1cnnc1[C@H](c1cccc(N2Cc3c(cc(CNC4(C)CCC4)cc3C(F)(F)F)C2=O)c1)C1(O)CCC1 (single isomer, unassigned) | 0
Cn1cnnc1[C@@H](c1cccc(N2Cc3c(cc(CNCC(C)(C)C)cc3C(F)(F)F)C2=O)c1)C1COC1 (single isomer, unassigned) | 1
